assay: Oral pharmacokinetics in ICR mice; type: in vivo, mouse; settings: male, mouse; ICR mice, oral, 30 mg/kg, plasma
property.label: AUC(0-t) (ng·h/mL)

compound	unit.annotation	numeric.result
CC(C)(CCCCCC(O)CCCCCC(C)(C)C(=O)O)C(=O)O [ETC-1002, Bempedoic acid, reference compound]	ng·h/mL	14400
CC(C)(CCCC/C=C/CCCCCC(C)(C)C(=O)O)C(=O)O	ng·h/mL	63700

###

molecular target: Human-derived ACLY protein (Homo sapiens); assay: ACLY citrate cleavage enzyme inhibition, ADP-Glo assay; settings: 25 nM enzyme, 30 min, 37° C., read-out: IC50 for inhibition of ACLY enzyme activity (mean ± SD)
Sequence (P53396 whole entry): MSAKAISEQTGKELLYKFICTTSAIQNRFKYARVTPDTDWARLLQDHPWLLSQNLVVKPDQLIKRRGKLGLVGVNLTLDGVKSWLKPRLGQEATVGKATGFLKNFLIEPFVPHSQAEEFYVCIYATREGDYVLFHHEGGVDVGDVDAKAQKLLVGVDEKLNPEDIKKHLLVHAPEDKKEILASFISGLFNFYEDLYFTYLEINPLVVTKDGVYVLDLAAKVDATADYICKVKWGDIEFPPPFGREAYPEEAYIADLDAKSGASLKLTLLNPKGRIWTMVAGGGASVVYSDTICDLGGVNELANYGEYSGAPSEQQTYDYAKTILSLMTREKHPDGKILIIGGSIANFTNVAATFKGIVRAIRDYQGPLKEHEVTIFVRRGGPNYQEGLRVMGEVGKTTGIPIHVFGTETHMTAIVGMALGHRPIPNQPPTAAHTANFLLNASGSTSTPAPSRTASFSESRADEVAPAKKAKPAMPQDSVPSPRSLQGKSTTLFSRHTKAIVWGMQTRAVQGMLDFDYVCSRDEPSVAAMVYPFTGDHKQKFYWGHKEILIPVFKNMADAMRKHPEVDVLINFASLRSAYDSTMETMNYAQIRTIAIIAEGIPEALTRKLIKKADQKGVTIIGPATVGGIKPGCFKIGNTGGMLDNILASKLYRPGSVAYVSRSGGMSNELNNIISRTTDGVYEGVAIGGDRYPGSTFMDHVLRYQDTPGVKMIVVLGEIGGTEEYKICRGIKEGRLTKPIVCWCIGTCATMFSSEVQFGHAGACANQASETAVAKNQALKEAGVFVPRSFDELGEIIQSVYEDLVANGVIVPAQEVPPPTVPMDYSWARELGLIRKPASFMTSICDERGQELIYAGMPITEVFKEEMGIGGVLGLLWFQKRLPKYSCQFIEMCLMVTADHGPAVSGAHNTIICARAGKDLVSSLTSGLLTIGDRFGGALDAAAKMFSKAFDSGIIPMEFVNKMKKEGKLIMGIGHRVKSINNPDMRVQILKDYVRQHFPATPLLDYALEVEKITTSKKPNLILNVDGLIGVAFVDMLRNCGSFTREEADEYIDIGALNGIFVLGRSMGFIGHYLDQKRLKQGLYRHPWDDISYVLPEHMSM

smiles.representation	IC50 [µM]
CC(C)(CCCCC/C=C/CCCCCCC(C)(C)C(=O)O)C(=O)O	12
CC(C)(CCCCC/C=C\CCCCCC(C)(C)C(=O)O)C(=O)O	25.5
C/C(CCCCCC(C)(C)C(=O)O)=C(\C)CCCCC(C)(C)C(=O)O	40.2
CC(C)(CCCC/C=C/CCCCC(C)(C)C(=O)O)C(=O)O	42.3
CC(C)(CCCC/C=C\CCCCC(C)(C)C(=O)O)C(=O)O	105
CC(C)(CCCCCC/C=C/CCCCCCC(C)(C)C(=O)O)C(=O)O	25.8
CC(C)(CCCC/C=C\CCCCCC(C)(C)C(=O)O)C(=O)O	53.9
CC(C)(CCCC/C=C/CCCCCC(C)(C)C(=O)O)C(=O)O	85.4
CC(C)(CCCCC/C=C/CCCCCC(C)(C)C(=O)O)C(=O)O	16.7
